- Tested on: U251 CNS
- Protocol Description: NCI tumour cell line growth inhibition, 48 h
Reported Metric: TGI

If you can, please state the reported TGI value of "CC(C)(C)SC1=CCC[C@@H](P(=O)(c2ccccc2)c2ccccc2)[C@@H]2CCC[C@@H]12" .
33.3 µM

What do you get for "CCCCNc1nc(SC)nc2nc[nH]c12" ?
> 100 µM

What do you get for "O=C(Oc1ccc([N+](=O)[O-])cc1)N1CCC(C(O)(c2ccc3c(c2)OCO3)c2ccc3c(c2)OCO3)CC1" ?
> 100 µM

What do you get for "CSc1s[s+]c(SC)c1[O-]" ?
86.5 µM

What do you get for CC1=CCC2(C#N)CCC1C2=O (stereo unspecified) ?
> 100 µM

What do you get for Cc1ccc(S(=O)(=O)C2=c3ncccc3=C3C(=O)c4ccccc4C(=O)C32)cc1 (stereo unspecified) ?
> 100 µM

What do you get for Nc1nc(=O)n(C2OC(CO)C(O)C2O)cc1F (stereo unspecified) ?
> 100 µM

What do you get for "CC(=O)Oc1ccc(-c2cc3ccccc3oc2=O)cc1OC(C)=O" ?
> 100 µM

What do you get for "Cc1c(-c2ccccc2)n(C)c2cn[nH]c(=O)c12" ?
> 100 µM

What do you get for "CNC(=O)N(CCC#N)CCN(CCN(C(=O)NC)c1ccccc1)C(=O)NC" ?
> 100 µM

What do you get for Nc1ncnc2c1ncn2CC(OCP(=O)(O)O)Oc1ccccc1 (stereo unspecified) ?
> 100 µM

----------
- System: UACC-62 melanoma
- Protocol Description: NCI tumour cell line growth inhibition, 48 h; in the data active = GI50 below about 0.43 µM; inactive = the rest
Reply using exactly one outcome from active, inactive

Check the results log: what was the call for "C=CC(=O)Nc1cc2c(Nc3ccc(OCc4ccccn4)c(Cl)c3)ncnc2cc1OCCN1CCOCC1" ?
inactive

What do you get for "Cc1cc(NC(=O)CCc2ccc(N3C(N)=NC(N)=NC3(C)C)cc2)ccc1S(=O)(=O)F" ?
active

What do you get for "O=[N+]([O-])c1ccc(N(CCO)CCO)c2c1no[n+]2[O-]" ?
inactive

What do you get for O=C1Nc2ccccc2SC1C1SC(=S)N(Cc2ccccc2)C1=O (configuration not stated) ?
inactive

What do you get for CN(C)CCCC1(c2ccc(F)cc2)OCc2cc(-c3ccc4cc[nH]c4c3)ccc21 (configuration not stated) ?
inactive

What do you get for "C#C[C@]1(O)CC[C@H]2[C@@H]3CC=C4c5nc(Nc6ccc(OC)cc6OC)sc5CC[C@]4(C)[C@H]3CC[C@@]21C" ?
inactive

What do you get for "O=C(NCCNCCO)c1ccc2oc3cc4ccccc4c(=O)n3c2c1" ?
inactive

----------
Provide the recorded GI50 for the entries that follow.
- Test system: KM12 colon
- Protocol Description: NCI tumour cell line growth inhibition, 48 h

If you can, please state the reported GI50 value of "C[C@]12CC[C@H]3[C@@H](C[C@@H]4SC(Nc5cccc(F)c5)=N[C@@]45CC(=O)CC[C@]35C)[C@@H]1CCC2=O" .
3 µM

What do you get for "O=C1C(Nc2ccccn2)=C(I)C(=O)c2ncccc21" ?
1.65 µM

What do you get for "CCOC(=O)c1c(C)c2c(n1C)CSc1cc(S(=O)(=O)c3ccccc3)c(=O)[nH]c1-2" ?
28.8 µM

What do you get for O=c1cccc(C#CCCCCOC2CCCO2)o1 (centres undefined) ?
20.4 µM

----------
- Test system: RPMI-8226 leukemia
- Protocol Description: NCI tumour cell line growth inhibition, 48 h; in the data active means GI50 below about 0.43 µM; inactive means the rest
Reply using exactly one outcome from 1 = active, -1 = inactive

Check the results log: what was the call for "COc1cc2cc(C(=O)O)[nH]c2cc1OCc1ccccc1" ?
-1

What do you get for "CCOC(=O)c1c(C)c2c(n1C)CSc1cc(S(=O)(=O)c3ccccc3)c(=O)[nH]c1-2" ?
-1

What do you get for "N#Cc1cccc(Nc2nccc(-c3cnn4ncccc34)n2)c1" ?
1

What do you get for "C[C@]12CC[C@H]3[C@@H](C[C@@H]4SC(Nc5cccc(F)c5)=N[C@@]45CC(=O)CC[C@]35C)[C@@H]1CCC2=O" ?
-1

What do you get for "COc1ccc(OC)c(-c2nc3sccn3c2/C=C2/C(=O)Nc3ccccc32)c1" ?
1

What do you get for "O=[N+]([O-])c1ccc(N(CCO)CCO)c2c1no[n+]2[O-]" ?
-1

What do you get for "O=C(NCCNCCO)c1ccc2oc3cc4ccccc4c(=O)n3c2c1" ?
-1

What do you get for "O=C(Nc1ccc(-n2cc(-c3ccncc3)c(-c3ccc(Cl)c(O)c3)n2)cc1)c1cc(Cl)cc(Cl)c1" ?
-1

----------
- Test system: UACC-62 melanoma
- Protocol Description: NCI tumour cell line growth inhibition, 48 h
Reported Metric: TGI (µM)
Numbers only; they are read as µM.

Hi! What's the reported TGI for "CSC(=S)NN=C1CCCCC1" on UACC-62 melanoma?
38

What do you get for "Nc1nc(Cl)c2ncn(Cc3ccccc3CCl)c2n1" ?
4.33

What do you get for "CCN(C)S(=O)(=O)Nc1cccc(Nc2ncnc3cc(NC(=O)CCl)ccc23)c1Cl" ?
4.46

What do you get for "O=C1c2c(Br)sc(Br)c2[C@H]2NC(=S)O[C@@H]12" ?
29.2

What do you get for "O=C1c2cccc3c(N4CCN(c5ccc6c7c(cccc57)C(=O)N(CCN5CCNCC5)C6=O)CC4)ccc(c23)C(=O)N1CCN1CCNCC1" ?
30.2

What do you get for CC(=O)OC1CC(OC2C(O)CC(OC3C(O)CC(OC4CCC5(C)C(CCC6C5CC(O)C5(C)C(C7=CC(=O)OC7)CCC65O)C4)OC3C)OC2C)OC(C)C1O (centres undefined) (tested in a mixture with another compound) ?
0.128

What do you get for "COc1ccc2[nH]cc(/C=C3\C(=O)Nc4ccccc43)c2c1" ?
20.6

What do you get for N#CC1=C(N)Oc2c(sc3c(F)cccc23)C1c1ccc([N+](=O)[O-])cc1 (centres undefined) ?
1.33

What do you get for Nc1nc(=O)n(C2OC(CO)C(O)C2O)cc1F (centres undefined) ?
5.3

What do you get for Cc1cccc(NC(=O)CC2C(=O)Nc3ccccc3S2(=O)=O)c1C (centres undefined) ?
46.3

What do you get for COC(=O)[C@]1(c2cc3ccccc3n2S(=O)(=O)c2ccccc2)CC2CCC1NC2 (some centres undefined) ?
29.5

What do you get for "COc1cc(Cn2c3c(c4cc(O)ccc42)C(=O)c2ccccc2C3=O)cc(OC)c1" ?
7.64

What do you get for "CC1=COC2=C(C)C(=O)C(=O)c3c(C)ccc1c32" ?
11.9

----------
- Tested on: SF-539 CNS
- Protocol Description: NCI tumour cell line growth inhibition, 48 h; in the data active means GI50 below about 0.43 µM; inactive means the rest
Reply using exactly one outcome from 1 = active, 0 = inactive

Check the results log: what was the call for "Cc1ccnc2c1NC(=O)c1cccnc1N2C1CC1" ?
0

What do you get for "COc1cc(/C=C2\C(=O)N(c3c(Cl)cccc3Cl)c3ccccc32)cc(OC)c1O" ?
0

What do you get for CN(C)CCCC1(c2ccc(F)cc2)OCc2cc(-c3ccc4cc[nH]c4c3)ccc21 (stereo not drawn) ?
0

What do you get for "Nc1ccc(-c2ccc(-c3nc4ccccc4[nH]3)cc2)cc1" ?
1

What do you get for "C[C@]12CC[C@H]3[C@@H](C[C@@H]4SC(Nc5cccc(F)c5)=N[C@@]45CC(=O)CC[C@]35C)[C@@H]1CCC2=O" ?
0

What do you get for "C=CC(=O)Nc1cc2c(Nc3ccc(OCc4ccccn4)c(Cl)c3)ncnc2cc1OCCN1CCOCC1" ?
0

What do you get for "CS(=O)(=O)c1ccc(C(F)(F)F)cc1NC(=O)Nc1cnc(Oc2ccc(-c3cc(Cl)cnc3N)cc2)nc1" ?
0

What do you get for "NC(=O)c1c(OCc2c(F)cc(Br)cc2F)nsc1NC(=O)NCCCCN1CCCC1" ?
0

----------
Provide the recorded GI50 for the entries that follow.
- Test system: EKVX NSCLC
- Protocol Description: NCI tumour cell line growth inhibition, 48 h

If you can, please state the reported GI50 value of Cc1cc(N2CCN(C)CC2)nc(NC2CCCC(Nc3ccnc4cc(Cl)ccc34)C2)n1 (centres undefined) .
2.81 µM

What do you get for "NC(=O)c1c(OCc2c(F)cc(Br)cc2F)nsc1NC(=O)NCCCCN1CCCC1" ?
> 10 µM

What do you get for "CCOC(=O)c1c(C)c2c(n1C)CSc1cc(S(=O)(=O)c3ccccc3)c(=O)[nH]c1-2" ?
14.6 µM

What do you get for O=C=Nc1ccc(Cc2ccc(N=C=O)cc2)cc1 (tested in a mixture with another compound) ?
> 25 µg/mL

----------
- Tested on: IGROV1 ovarian
- Protocol Description: NCI tumour cell line growth inhibition, 48 h
Reported Metric: TGI

If you can, please state the reported TGI value of COC1OC(C)C(OC(=O)C(C)(C)C)C(C)(O)C1O (centres undefined) .
> 100 µM

What do you get for NC(C(=O)O)C(N)C(=O)O (centres undefined) ?
> 100 µM

What do you get for "Clc1ccc2c(NCCCN3CCN(c4nc(-n5ccnc5)nc5ccccc45)CC3)ccnc2c1" ?
23.7 µM

What do you get for "N#Cc1c(NC(=O)CCC(=O)O)ccc2ccccc12" ?
> 100 µM

What do you get for "Nc1nc(Cl)cc(Nc2ccc3c(c2)CCC3)n1" ?
> 100 µM

What do you get for "COc1ccc2cc(C(=O)/C=C/c3ccc(OC)c(OC)c3)ccc2c1" ?
78.2 µM

What do you get for "O=C(O)/C(O)=C1/C=C(c2ccccc2)c2ccccc21" ?
51.8 µM

What do you get for "CCN(C)S(=O)(=O)Nc1cccc(Nc2ncnc3cc(NC(=O)CCl)ccc23)c1Cl" ?
8.62 µM

What do you get for COC(=O)C1CCc2c(OC)ccc(OC)c2C1=O (centres undefined) ?
> 100 µM

What do you get for "CCOC(=O)C(=Cc1ccc(Br)cc1)C(=O)OCC" ?
3.94 µM

What do you get for "COc1ccc(OC)c(-c2nc3sccn3c2/C=C2/C(=O)Nc3ccccc32)c1" ?
> 86.1 µM

What do you get for "Nc1ccc(-c2ccc(-c3nc4ccccc4[nH]3)cc2)cc1" ?
> 82.4 µM

What do you get for Cc1cccc(NC(=O)CC2C(=O)Nc3ccccc3S2(=O)=O)c1C (centres undefined) ?
60 µM

What do you get for "CCC(C)(C)NC1=C(NC(C)=O)C(=O)c2ccccc2C1=O" ?
> 75 µM

What do you get for "CCOC(=O)c1cc(C(=O)c2cc(OC)cc(OC)c2)n2ncccc12" ?
> 100 µM

What do you get for "COc1cc(OC)c(/C=N/N=C(\N)NO)c(OC)c1" ?
> 100 µM

What do you get for "COC(=O)C1=NN2c3ccccc3CN([C@@H](C)c3ccccc3)C(=O)[C@@H]2C1" ?
> 100 µM

What do you get for Fc1cccc(F)c1C1SCc2nc3ccccc3n21 (centres undefined) ?
> 100 µM

What do you get for "COc1cc(CNC(=O)CCCCCCCC/C=C/Br)ccc1O" ?
> 10 µM

What do you get for CC1=CCC2(C#N)CCC1C2=O (centres undefined) ?
> 100 µM

What do you get for "c1ccc(-c2cc(-c3cc(-c4ccccn4)[nH]n3)n[nH]2)nc1" ?
> 100 µM

What do you get for "CCCCNc1nc(SC)nc2nc[nH]c12" ?
> 100 µM

What do you get for CCNC1CC(C(C)(C)NCC)CC=C1C (centres undefined) ?
> 100 µM

What do you get for "CNC(=O)N(CCC#N)CCN(CCN(C(=O)NC)c1ccccc1)C(=O)NC" ?
> 100 µM

What do you get for "O=C(Oc1ccc([N+](=O)[O-])cc1)N1CCC(C(O)(c2ccc3c(c2)OCO3)c2ccc3c(c2)OCO3)CC1" ?
> 100 µM

What do you get for "CN/N=C(\C)CC(=O)Nc1cccc(Cl)c1C" ?
> 100 µM

What do you get for "CCOC(=O)c1c(C)c2c(n1C)CSc1cc(S(=O)(=O)c3ccccc3)c(=O)[nH]c1-2" ?
> 100 µM

What do you get for OC[C@H]1CC(c2nn[nH]n2)[C@H](O)[C@@H]1O (some centres undefined) ?
> 100 µM

What do you get for "CCC(=S)N(C)O" ?
> 37 µM

What do you get for "O=C(O)/C(=C\c1ccccc1)Cc1ccccc1" ?
> 100 µM

What do you get for COC(CNC(=O)C(C)NC(=O)C(C)NC(=O)c1ccccc1)OC (centres undefined) ?
> 100 µM

What do you get for "O=C1OC(c2ccc([N+](=O)[O-])cc2)=N/C1=C\c1ccc(O)cc1" ?
> 100 µM

What do you get for "Cc1ccc(NC2=C(Cl)C(=O)c3nc(C)ccc3C2=O)cc1" ?
3.35 µM

What do you get for "O=C1c2c(Br)sc(Br)c2[C@H]2NC(=S)O[C@@H]12" ?
32 µM

What do you get for "O=C(C#Cc1c[nH]c(=O)[nH]c1=O)c1ccccc1" ?
32.5 µM

What do you get for "CCCNc1[nH]c(C(C)=O)c(N)c1C(=S)Nc1ccccc1" ?
> 100 µM

What do you get for O=c1cccc(C#CCCCCOC2CCCO2)o1 (centres undefined) ?
> 88.8 µM

What do you get for "N#Cc1cccc(Nc2nccc(-c3cnn4ncccc34)n2)c1" ?
> 11.6 µM

What do you get for "COc1ccc(-c2nc3ccc(C)cc3o2)c(OC)c1" ?
76.3 µM

What do you get for "CC1=NN(C(=O)c2ccc(Cl)cc2)C(=O)/C1=C/c1cccc(O)c1" ?
> 100 µM

What do you get for CN(C)CC1(C)CC/C(=C\c2ccc3c(c2)OCO3)C1=O (centres undefined) ?
> 100 µM

What do you get for "Cc1ccccc1NC(=O)C(=O)Cc1nc2ccccc2s1" ?
> 100 µM

What do you get for "O=C(NCCNCCO)c1ccc2oc3cc4ccccc4c(=O)n3c2c1" ?
17.7 µM

What do you get for CC(O[Si](C)(C)C(C)(C)C)[C@H](NC(=O)OCC(Cl)(Cl)Cl)C(=O)O (some centres undefined) ?
> 100 µM

What do you get for "C(/COc1cccnc1)=N\NC1=NCCN1" ?
> 100 µM

What do you get for O=C1Nc2ccccc2SC1C1SC(=S)N(Cc2ccccc2)C1=O (centres undefined) ?
16.5 µM

What do you get for "COc1ccc(C2=C(OC(C)=O)c3cccn3-c3ccccc3S2)cc1" ?
> 10 µM

What do you get for "C/C=C/C=C/[C@H]1Cc2cc(O)cc(O)c2O1" ?
> 100 µM

What do you get for "O=[N+]([O-])c1ccc(N(CCO)CCO)c2c1no[n+]2[O-]" ?
7.42 µM

Data provenance is PubChem BioAssay (NCI).
